- Test system: SF-268 CNS
- PROCEDURE_SUMMARY: NCI-60 one-dose screen, 48 h
- CONDITION_NOTES: 10 µM unless noted
The panel holds about 83,000 compounds, 20% with a hit somewhere; the sample as a whole holds those more often. The source made the active and inactive calls. Rule for the calls: active = growth percent below 10; inactive = the rest.
# output must be one of y (active), n (inactive)

**Q:** Could you please tell me the result logged for COc1ccc(C(Cc2ccccc2)NCCN2CCOCC2)cc1 (stereo not given) in this assay?
**A:** n

**Q:** Could you please tell me the result logged for C[N+]1=C(/C=C/c2ccc(O)c3ncccc23)C(C)(C)c2ccccc21 in this assay?
**A:** n

**Q:** Could you please tell me the result logged for CCN(CC)c1ccc(C2=NN(C(C)=O)C(c3cc(OC)c(OC)c(OC)c3)C2)cc1 (stereo not given) in this assay?
**A:** n

**Q:** Could you please tell me the result logged for Brc1ccc2[nH]cc(-c3nc(-c4c[nH]c5ccncc45)cs3)c2c1 in this assay?
**A:** y

**Q:** Could you please tell me the result logged for N#Cc1c(-c2ccc(Cl)cc2)nc2c(c(-c3ccccc3)nn2-c2ccccc2)c1-c1ccc(O)cc1 in this assay?
**A:** n

**Q:** Could you please tell me the result logged for Cc1ccc(S(=O)(=O)N/N=C/C2(c3ccccc3)CC2)cc1 in this assay?
**A:** n

**Q:** Could you please tell me the result logged for CCCCCCCCCCCCCCCCCCOc1ccc(CC(=O)OCC[N+](C)(C)C)cc1 in this assay?
**A:** n

**Q:** Could you please tell me the result logged for Cc1cc2[nH]c(=O)c3c4ncccc4cn3c2cc1C in this assay?
**A:** n

**Q:** Could you please tell me the result logged for Cc1ccc(C(=O)N/N=C/c2cccc([N+](=O)[O-])c2)cn1 in this assay?
**A:** n

**Q:** Could you please tell me the result logged for C=CCc1cc(C)ccc1NC(C(=O)NCC(=O)OC)c1ccccc1 (stereo not given) in this assay?
**A:** n

----------
- Tested on: NCI/ADR-RES ovarian
- PROCEDURE_SUMMARY: NCI-60 one-dose screen, 48 h
- CONDITION_NOTES: 10 µM unless noted
The panel holds about 83,000 compounds, 20% with a hit somewhere; the sample as a whole holds those more often. Active and inactive are the calls of the source. How the source made its calls: active means growth percent below 10; inactive means the rest.
# output must be one of active, inactive

**Q:** Could you please tell me the result logged for COc1ccc2sc3c(NCCO)nc4ccccc4c3c(=O)c2c1 in this assay?
**A:** inactive

**Q:** Could you please tell me the result logged for CC1=C([Se]CC(OC(=O)[C@@H](CSSC(C)(C)C)NC(=O)OC(C)(C)C)C(=O)NC(C)(C)C)C(=O)c2ccccc2C1=O (stereo partly drawn) in this assay?
**A:** active

**Q:** Could you please tell me the result logged for CCC12CCC[N+]3([O-])CCC4(C(=Nc5ccccc54)C(O)(C(=O)OC)C1)C23 (stereo not drawn) in this assay?
**A:** inactive

**Q:** Could you please tell me the result logged for Cc1cc(Cl)ccc1NS(=O)(=O)c1ccc(-c2cnc(C3CC3)o2)cc1 in this assay?
**A:** active

**Q:** Could you please tell me the result logged for Cc1nc2ccccc2c(/C=C/c2ccccc2)c1C(=O)/C=C/c1ccc(C(F)(F)F)cc1 in this assay?
**A:** active

**Q:** Could you please tell me the result logged for CC(=O)CC[C@H]1C(=O)N[C@@H](C(C)C)C(=O)N[C@@H](Cc2cc(O)cc(F)c2)C(=O)N2CCC[C@H](N2)C(=O)O[C@H](/C(C)=C/C=C/C(=O)OC(C)(C)C)C/C=C/C=C/[C@H](O)[C@H](C)[C@H]1O in this assay?
**A:** inactive

**Q:** Could you please tell me the result logged for CCOC(=O)C1=C(N)Oc2c(sc3c(CC)cccc23)C1c1ccc(F)cc1 (stereo not drawn) in this assay?
**A:** inactive

**Q:** Could you please tell me the result logged for CCN(CC)CCNC(=O)c1cn2ncnc(Oc3ccc(NC(=O)Nc4ccc(Cl)c(C(F)(F)F)c4)cc3)c2c1C in this assay?
**A:** inactive

**Q:** Could you please tell me the result logged for Cc1ccc2c(n1)C(=O)C(Cl)=C(Nc1ccccc1C(C)C)C2=O in this assay?
**A:** inactive

**Q:** Could you please tell me the result logged for c1ccc2c(-c3nc(-c4c[nH]c5ccncc45)cs3)c[nH]c2c1 in this assay?
**A:** inactive

**Q:** Could you please tell me the result logged for CCCCCCNC(=O)Oc1ccc(/C(=C(\C)c2ccc(OC)cc2)c2ccc(OCCN3CCCCC3)cc2)cc1 in this assay?
**A:** inactive

**Q:** Could you please tell me the result logged for C=C1C(=O)O[C@H]2[C@H]1CC/C(COC(=O)CCC(=O)NCCOCCOCC(=O)Nc1ccc(OC)c(C(N)=O)c1O)=C\CC[C@@]1(C)O[C@@H]21 in this assay?
**A:** inactive

**Q:** Could you please tell me the result logged for Cc1nc(NC(=O)COc2ccc(/C=C3\Cc4ccc(Cl)cc4C3=O)cc2)sc1C in this assay?
**A:** inactive

**Q:** Could you please tell me the result logged for COc1cccc2c(=O)c3c(sc12)c(NCCCN)nc1ccccc13 in this assay?
**A:** inactive

**Q:** Could you please tell me the result logged for C#Cc1cccc(NC(=O)c2ccc(NC(=O)C=C)cc2)c1 in this assay?
**A:** inactive

**Q:** Could you please tell me the result logged for BrCCCc1n(Cc2ccc3ccccc3c2)c2ccccc2[n+]1Cc1ccc2ccccc2c1 in this assay?
**A:** inactive

**Q:** Could you please tell me the result logged for COc1ccc2c(c1)c(-c1nn3cc(-c4cccs4)nc3s1)cn2C in this assay?
**A:** inactive

**Q:** Could you please tell me the result logged for COc1ccc(OC)c(/C=C/C(=O)N/N=C/c2ccc(Cl)cc2)c1 in this assay?
**A:** active

----------
Please respond with reported growth for every item in the list.
- System: HCC-2998 colon
- PROCEDURE_SUMMARY: NCI-60 one-dose screen, 48 h (100 = growth as untreated, 0 = no growth, -100 = all killed)
- CONDITION_NOTES: 10 µM unless noted
The panel holds about 83,000 compounds, 20% with a hit somewhere; the sample as a whole holds those more often.
// units = %; emit number, no label

growth for C=CCc1cc(C)ccc1NC(C(=O)NCC(=O)OC)c1ccccc1 (stereo unspecified) is 98.7

growth for CCc1ccc(Oc2c(-c3ccc(OCCc4cccc(C(F)(F)F)c4)cc3O)n[nH]c2C(F)(F)F)cc1 is 89.4

growth for CCCCCCn1c(-c2ccc(C(=O)O/N=C(\N)c3ccc4ccccc4c3)cc2)nc(-c2ccccc2)c1-c1ccccc1 is 93.8

growth for O=c1c2cccc(F)c2sc2c(NCCCNCCO)nc3ccccc3c12 is -51.7

growth for O=C(Nc1ccc(I)cc1F)c1cc(I)ccc1O is 17.6

growth for O=C(N/N=C/[C@H](O)[C@H](O)[C@H](O)CO)c1ccc(NC(=O)c2cccnc2)cc1 is 110

growth for CCCCOc1nc2c(C)cccc2cc1-c1cc(-c2ccc(Cl)cc2)nc(-c2ccc(Cl)cc2)c1 is 108

growth for c1ccc2cc(C[n+]3ccn(CCCCCCn4cc[n+](Cc5ccc6ccccc6c5)c4)c3)ccc2c1 is 59.4

growth for CCN(CC)c1ccc(C2=NN(C(C)=O)C(c3cc(OC)c(OC)c(OC)c3)C2)cc1 (stereo unspecified) is -6.47

growth for CCOC(=O)c1c(C)oc2ncnc(N3CCN(C(=O)COc4ccc(C(C)(C)C)cc4)CC3)c12 is 104

growth for Cc1ccc(-c2nc3c(c(-c4ccccc4)nn3-c3ccccc3)c(-c3ccc(O)cc3)c2C#N)cc1 is 95.3

growth for CCOC(=O)C1=C(N)Oc2c(sc3c(C)cccc23)C1c1ccc(OC)cc1 (stereo unspecified) is 74.4

growth for Cc1ccc(C(C)C)cc1C(=O)C[n+]1ccccc1 is 107

growth for COc1cc(CCC[P+](c2ccccc2)(c2ccccc2)c2ccccc2)c(OC)c(OC)c1OC is 100

growth for COc1cc(C(=O)c2cnc(-c3c[nH]c4cccc(C)c34)[nH]2)cc(OC)c1OC is 20.1

growth for CN(C)CCNc1nc2ccccc2c2c(=O)c3cc(F)ccc3sc12 is -64.5

growth for Cc1nc2ccccc2n1CC1C(=O)NC(=O)NC1=O is 127

growth for CCOC(=O)NCCc1ccccc1 is 90.3

growth for COc1ccc(-c2cc(-c3cc(OC)c(OC)c(OC)c3)nc(N3CCOCC3)c2C#N)cc1 is 35

growth for CC(C)OC(=O)Nc1ccc(-c2nc(-c3cccc(OCCN4CCOCC4)c3)c(-c3ccnc(Br)c3)[nH]2)cc1 is 29.4

growth for NC(=O)Nc1ccc2ncnc(Nc3ccc(Cl)cc3)c2c1 is 97.9

growth for O=c1[nH]c2c(ccc3cnccc32)c2c1CCC2 is -51.8

growth for COc1cccc2c(=O)c3c(sc12)c(NCCCN)nc1ccccc13 is -57.3

growth for CCCCn1c(-c2ccc(C(=O)O/N=C(\N)c3ccc(OC)cc3)cc2)nc(-c2ccccc2)c1-c1ccccc1 is 1.5

growth for COc1ccc(/C=C2\Oc3cc(OCCN4CCC(Cc5ccccc5)CC4)ccc3C2=O)cc1OC is -2.67

growth for COc1cc(Nc2cn[nH]c2-c2ccc(Cl)cc2)cc(OC)c1OC is -28.5

growth for Cc1ccc(C(=O)NCCNc2nccc(-c3c(-c4cccc(F)c4)nc4sccn34)n2)cc1 is 64.2

growth for Clc1ccc(C(/C=C/c2sc(Cl)nc2Cl)=N/Nc2cc(Cl)cc(Cl)c2)cc1 is 112

growth for CC(C)c1cc(C(C)C)c(S(=O)(=O)Oc2ccc(NC(=O)c3ccc(Cl)cc3)cc2)c(C(C)C)c1 is 26.3

growth for c1ccc(OCc2nnc(-c3ccc(Oc4ccccc4)cc3)o2)cc1 is 114

growth for Nc1nc(-c2cccc3ccccc23)cc2ccccc12 is -5.78

growth for CN1CCN(c2ccc(-c3cc4c(Nc5ccc(F)c(Cl)c5)ncnn4c3)cn2)CC1 is 98.6

growth for O=C(Nn1c(NCC(=O)N2c3ccccc3Sc3ccccc32)nnc1-c1ccc(O)cc1)c1ccccc1 is 91.9

growth for Cc1c(C(=O)NCCCc2ccccc2)sc2ncc(-c3ccc(Br)cc3)n12 is 110

growth for COc1ccc(C(=O)C[C@]2(O)C(=O)Nc3c(Cl)ccc(Cl)c32)cc1 is 23.1

growth for Cn1cc(C(=O)c2nc(-c3cn(C)c4ccc(F)cc34)no2)c2cc(F)ccc21 is 84.6

growth for Cc1ccc(/C=C(\C#N)n2nc3cccc(F)c3n2)cc1 is 105

growth for O=C(Cc1ccc(F)c(Cl)c1)Nc1cc(C2(C(F)(F)F)CC2)nn1CC1CCCCC1 is 14.9

growth for CCc1cccc2c3c(sc12)C(c1ccc(Cl)cc1)C(C#N)=C(N)O3 (stereo unspecified) is 17.5

growth for CCN(CC)S(=O)(=O)c1ccc(NC(=O)CSc2nnc(C)n2-c2ccccc2)cc1 is 109

growth for Cc1ccc(-c2cnc3sc(C(=O)NCCc4ccccc4)c(C)n23)cc1 is 96.9
